Just for reference, patent US20250186614A1 is where these values come from.

- experiment-summary: Example 4: dose response of FKBP constructs 160-255, Ec50, Ec90 and fold change (raw and normalized to mCherry)
- Format: cell-based
- experimental-setup: fold change during initial analysis
- Method: Additional experiments were performed for constructs FKBP-160-292.
Lab note: anything with FC (fold change) below 40 is marked satisfied; values at 40 or higher are marked not satisfied.

{"molecule": "FKBP-162 (protein, C-terminal R deleted; Description of sequence: Construct Name: FKBP-162; Mutation(s): Q72R Q84E A117W DRD M54A del c-term R V85R) HCPIKSRKGDVLHAHYTGKLEDGTEFDSSLPRNQPFVFSLGTGERIKGWDQGLLGMCEGEKRKLVIPSELGYGERGWPPKIPGGATLVFEVELLKIE", "class": "not satisfied"}
{"molecule": "FKBP-205 (protein, Description of sequence: Construct Name: FKBP-205; Mutation(s): Q72R Q84E A117W V85R DRD M54A L104V) HCPIKSRKGDVLHAHYTGKLEDGTEFDSSLPRNQPFVFSLGTGERIKGWDQGLLGMCEGEKRKVVIPSELGYGERGWPPKIPGGATLVFEVELLKIER", "class": "satisfied"}
{"molecule": "FKBP-191: FKBP13 DRD-AcGFP construct of Table 10 (protein, Description of sequence: Construct Name: FKBP-191; Mutation(s): Q72R Q84E A117W V85R DRD G49S) HCPIKSRKSDVLHMHYTGKLEDGTEFDSSLPRNQPFVFSLGTGERIKGWDQGLLGMCEGEKRKLVIPSELGYGERGWPPKIPGGATLVFEVELLKIER", "class": "not satisfied"}
{"molecule": "FKBP-178 (protein, Description of sequence: Construct Name: FKBP-178; Mutation(s): Q72R Q84E A117W DRD M54AF78S) HCPIKSRKGDVLHAHYTGKLEDGTEFDSSLPRNQPFVSSLGTGEVIKGWDQGLLGMCEGEKRKLVIPSELGYGERGWPPKIPGGATLVFEVELLKIER", "class": "satisfied"}
{"molecule": "FKBP-176 (protein, Description of sequence: Construct Name: FKBP-176; Mutation(s): Q72R Q84E A117W DRD M54A G116E) HCPIKSRKGDVLHAHYTGKLEDGTEFDSSLPRNQPFVFSLGTGEVIKGWDQGLLGMCEGEKRKLVIPSELGYGEREWPPKIPGGATLVFEVELLKIER", "class": "satisfied"}
{"molecule": "FKBP-225 (protein, Description of sequence: Construct Name: FKBP-225; Mutation(s): Q72R Q84E A117W V85R DRD P43R) HCRIKSRKGDVLHMHYTGKLEDGTEFDSSLPRNQPFVFSLGTGERIKGWDQGLLGMCEGEKRKLVIPSELGYGERGWPPKIPGGATLVFEVELLKIER", "class": "satisfied"}
{"molecule": "FKBP-219 (protein, Description of sequence: Construct Name: FKBP-219; Mutation(s): Q72R Q84E A117W V85R DRD M54A E61G K101G K135E) HCPIKSRKGDVLHAHYTGKLGDGTEFDSSLPRNQPFVFSLGTGERIKGWDQGLLGMCEGEGRKLVIPSELGYGERGWPPKIPGGATLVFEVELLEIER", "class": "satisfied"}
{"molecule": "FKBP-195: combinatorial FKBP13 mutant construct of Table 10, carries K135Y (protein, Description of sequence: Construct Name: FKBP-195; Mutation(s): Q72R Q84E A117W V85R DRD K135Y) HCPIKSRKGDVLHMHYTGKLEDGTEFDSSLPRNQPFVFSLGTGERIKGWDQGLLGMCEGEKRKLVIPSELGYGERGWPPKIPGGATLVFEVELLYIER", "class": "not satisfied"}
{"molecule": "FKBP-174 (protein, Description of sequence: Construct Name: FKBP-174; Mutation(s): Q72R Q84E A117W DRD M54A S36G V131G) HCPIKGRKGDVLHAHYTGKLEDGTEFDSSLPRNQPFVFSLGTGEVIKGWDQGLLGMCEGEKRKLVIPSELGYGERGWPPKIPGGATLVFEGELLKIER", "class": "satisfied"}
